- Experimental Target: FGFR4 (Homo sapiens)
- Construct: made in house; host or cells: E. coli (BL21-derived) infected with T7 phage
- Sequence (P22455 22-802): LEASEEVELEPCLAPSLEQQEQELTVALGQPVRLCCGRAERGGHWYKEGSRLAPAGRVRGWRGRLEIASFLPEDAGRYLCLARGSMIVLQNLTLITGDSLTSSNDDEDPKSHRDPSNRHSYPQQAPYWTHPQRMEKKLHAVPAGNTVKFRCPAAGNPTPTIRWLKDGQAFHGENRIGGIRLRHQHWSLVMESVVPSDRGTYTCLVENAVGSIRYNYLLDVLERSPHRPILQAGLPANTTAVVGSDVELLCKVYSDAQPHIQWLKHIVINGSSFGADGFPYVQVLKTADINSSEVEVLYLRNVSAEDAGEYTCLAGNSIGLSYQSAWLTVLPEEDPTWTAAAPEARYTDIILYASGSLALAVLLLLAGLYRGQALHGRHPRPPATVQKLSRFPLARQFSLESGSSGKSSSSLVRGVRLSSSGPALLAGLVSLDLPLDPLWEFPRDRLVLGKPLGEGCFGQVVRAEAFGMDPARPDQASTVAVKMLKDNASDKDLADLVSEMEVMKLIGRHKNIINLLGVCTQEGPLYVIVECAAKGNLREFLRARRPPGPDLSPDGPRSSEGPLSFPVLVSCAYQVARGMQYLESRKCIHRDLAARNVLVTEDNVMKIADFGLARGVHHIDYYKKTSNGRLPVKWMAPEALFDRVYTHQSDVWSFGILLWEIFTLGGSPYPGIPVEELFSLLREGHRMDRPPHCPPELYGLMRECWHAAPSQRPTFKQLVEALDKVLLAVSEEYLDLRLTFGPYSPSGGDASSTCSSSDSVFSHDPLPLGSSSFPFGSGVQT
- Measurement Protocol: Kinase binding assay (Kd), kinase-tagged T7 phage, affinity beads, qPCR
- Experimental Parameters: in vitro binding assay, 11-point 3-fold dilution series
What Kd was measured for each of the following?

Using the record for C=CC(=O)N1CCC(n2ncc(-c3cc(O[C@H](CO)c4ccc(F)cn4)c4c(C#N)cnn4c3)c2C)CC1 , report its Kd.
100 to 250 nM

Sample C=CC(=O)N1CCC2(CC1)CC(n1ncc(-c3cc(O[C@H](CO)c4ccc(F)cn4)c4c(C#N)cnn4c3)c1C)C2 — what was its Kd?
0.1 to 100 nM

Can you share its Kd? I mean this compound: C=CC(=O)N1CC(OC)(C(=O)N2CCC(n3nnc(-c4cc(O[C@@H](CO)c5ccccn5)c5c(C#N)cnn5c4)c3C)CC2)C1
≥ 1000 nM

// returns reported Kd for input C=CC(=O)N1CCC2(CC1)CC(n1nnc(-c3cc(O[C@@H](CO)c4ccc(F)cn4)c4c(C#N)cnn4c3)c1C)C2
≥ 1000 nM

Fill in: Kd of C=CC(=O)N1CC(C(=O)N2CCC(n3nnc(-c4cc(O[C@H](CO)c5ccccn5)c5c(C#N)cnn5c4)c3C)CC2)C1 (single isomer, unassigned) is ___
0.1 to 100 nM

Item under review: C=CC(=O)N1CC(F)(C(=O)N2CCC(n3nnc(-c4cc(O[C@@H](CO)c5ccccn5)c5c(C#N)cnn5c4)c3C)CC2)C1 (single isomer, unassigned) . Reported Kd?
≥ 1000 nM
